System: Progesterone receptor (Mesocricetus auratus)
Experiment: Percent inhibition of [3H]- progesterone binding to Syrian golden hamster uterine cytosol progesterone receptor, at 10e-7 M compound concentration
Conditions: at 0.1 µM
# cutoff 10% applies to inhibition; >= gives True, < gives False

Can COC(=O)C1=C(C)N=C(C)/C(=C(/O)OC)C1c1ccc2nc(-c3ccc(OC)cc3)n(Cc3ccc(OC)cc3)c2c1 (configuration not stated) be said to have inhibition at or above 10%? True

Record COC(=O)C1=C(C)N=C(C)/C(=C(\O)OC)C1c1ccc(N)c([N+](=O)[O-])c1 (configuration not stated) ; criterion: inhibition no lower than 10%. Met? False

Determine whether this compound has inhibition no lower than 10%: COC(=O)C1=C(C)N=C(C)/C(=C(/O)OC)C1c1ccc(C2C(C(=O)OC)=C(C)N=C(C)/C2=C(/O)OC)cc1 (configuration not stated) True

Exam item: decide whether the reported inhibition for COC(=O)C1=C(C)N=C(C)/C(=C(\O)OC)C1c1cc(C(=O)c2ccc(C)cc2)c(OC)cc1OC (configuration not stated) is at least 10%. True

Could you please find out whether COC(=O)C1=C(C)N=C(C)/C(=C(/O)OC)C1c1ccc(C=O)cc1 (configuration not stated) has inhibition that meets 10% or exceeds it? False

State whether the measured inhibition reaches 10%, counting equality as reaching it, for COC(=O)C1=C(C)N=C(C)/C(=C(/O)OC)C1c1ccc2nc(-c3ccc4c(c3)OCO4)n(Cc3ccc4c(c3)OCO4)c2c1 (configuration not stated) False

Could you verify whether the entry COC(=O)C1=C(C)N=C(C)/C(=C(\O)OC)C1c1cc2cc(-c3c(C)oc(C)c3C(=O)OC)ccc2nc1Cl (configuration not stated) shows inhibition of no less than 10%? False

Please check the record COC(=O)C1=C(C)N=C(C)/C(=C(/O)OC)C1c1ccc2nc(-c3ccccc3)c(-c3ccccc3)nc2c1 (configuration not stated) and state if its inhibition is at or above 10%. True

Determine whether measured inhibition meets or exceeds 10% for COC(=O)C1=C(C)N=C(C)/C(=C(/O)OC)C1c1ccc2nc3n(c2c1)C(=O)c1ccccc1-3 (configuration not stated) False

inhibition >= 10% for COC(=O)C1=C(C)N=C(C)/C(=C(/O)OC)C1c1ccc(N)c(N)c1 (configuration not stated) ? False
